Biological target: Cyclin-G-associated kinase (Homo sapiens)
Sequence (O14976 whole entry): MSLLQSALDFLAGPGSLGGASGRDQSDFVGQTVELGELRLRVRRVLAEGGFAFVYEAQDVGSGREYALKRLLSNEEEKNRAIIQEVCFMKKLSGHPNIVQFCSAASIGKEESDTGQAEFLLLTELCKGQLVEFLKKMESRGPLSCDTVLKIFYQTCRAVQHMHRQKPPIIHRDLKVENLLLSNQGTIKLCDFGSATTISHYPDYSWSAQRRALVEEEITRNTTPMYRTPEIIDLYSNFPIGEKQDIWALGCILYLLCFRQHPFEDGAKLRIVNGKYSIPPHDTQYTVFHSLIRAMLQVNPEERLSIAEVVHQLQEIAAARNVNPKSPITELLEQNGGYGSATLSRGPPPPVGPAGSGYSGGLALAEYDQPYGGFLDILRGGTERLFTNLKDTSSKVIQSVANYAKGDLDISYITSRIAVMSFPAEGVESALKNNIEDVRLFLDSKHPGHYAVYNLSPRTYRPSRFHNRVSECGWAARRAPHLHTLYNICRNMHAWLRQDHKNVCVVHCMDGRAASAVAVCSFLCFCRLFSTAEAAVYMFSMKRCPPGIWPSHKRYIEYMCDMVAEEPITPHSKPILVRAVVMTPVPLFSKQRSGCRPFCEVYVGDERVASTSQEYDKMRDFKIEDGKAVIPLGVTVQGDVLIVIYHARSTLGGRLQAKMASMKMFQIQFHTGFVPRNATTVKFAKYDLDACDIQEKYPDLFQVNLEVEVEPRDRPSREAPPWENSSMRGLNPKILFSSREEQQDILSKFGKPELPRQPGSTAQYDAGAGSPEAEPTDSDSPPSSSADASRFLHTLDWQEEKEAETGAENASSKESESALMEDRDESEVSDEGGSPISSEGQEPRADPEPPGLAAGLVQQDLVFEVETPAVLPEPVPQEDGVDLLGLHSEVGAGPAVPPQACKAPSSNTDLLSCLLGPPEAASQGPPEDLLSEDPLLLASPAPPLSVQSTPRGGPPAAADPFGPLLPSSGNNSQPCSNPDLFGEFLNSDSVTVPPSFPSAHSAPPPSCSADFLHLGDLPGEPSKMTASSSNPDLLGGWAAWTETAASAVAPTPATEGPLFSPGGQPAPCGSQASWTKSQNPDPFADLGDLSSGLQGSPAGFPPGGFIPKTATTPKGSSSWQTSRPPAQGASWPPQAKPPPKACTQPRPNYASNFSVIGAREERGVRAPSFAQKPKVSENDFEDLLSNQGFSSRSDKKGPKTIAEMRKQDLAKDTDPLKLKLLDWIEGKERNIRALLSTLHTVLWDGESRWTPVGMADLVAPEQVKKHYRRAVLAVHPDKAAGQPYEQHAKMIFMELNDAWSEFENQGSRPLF
Below, pKd values reported for Cyclin-G-associated kinase (Homo sapiens) across several publications.
Remember the convention: pKd equals -log10 of concentration in molar.

INPUT: What value of measured pKd is listed for COc1ccc2c(Nc3cc(OC)c(OC)c(OC)c3)ccnc2c1 ?
OUTPUT: 7.46

INPUT: Would you kindly share the measured pKd for COc1cc(Nc2ccnc3ccccc23)cc(OC)c1OC ?
OUTPUT: 6.77

INPUT: Sample COc1cc2ncc(C#N)c(Nc3cc(OC)c(OC)c(OC)c3)c2cc1OC — what was its pKd?
OUTPUT: 9.38

INPUT: So what does the record say about pKd for c1cc(-c2cnc3c(N4CCOCC4)snc3c2)cs1 ?
OUTPUT: 7.38
